# test description: Half-life in C57BL/6 mouse at 30 mg/kg, po by LC-MS/MS method
# Format: ADME, organism-based
# cond: in vivo

smiles text | half-life (h)
FC(F)(F)Oc1cccc(-c2ccnc3[nH]c(C(F)(F)F)nc23)c1 | 3.7

* * *

Below, each entry is listed alongside its reported EC50.
# Test system: L6
# test description: Uncoupling activity in rat L6 myoblasts assessed as oxygen consumption rate incubated over 90 mins
# Assay type: functional, cell-based
# cond: Rattus norvegicus, L6, 1.5 h; read-out: EC50
property name: EC50 (µM)

smiles text | study system | property name | units of measure | readout relation | number
FC(F)(F)c1ccc(-c2ccnc3[nH]c(C(F)(F)F)nc23)cc1 | L6 | EC50 | µM | = | 1.3
Fc1ccc(-c2ccnc3[nH]c(C(F)(F)F)nc23)cc1 | L6 | EC50 | µM | = | 4.4
FC(F)(F)c1nc2c(Cl)ccnc2[nH]1 | L6 | EC50 | µM | = | 29.8
FC(F)(F)c1nc2c(-c3ccc(Cl)cc3)ccnc2[nH]1 | L6 | EC50 | µM | > | 100
Fc1ccccc1Oc1ccnc2[nH]c(C(F)(F)F)nc12 | L6 | EC50 | µM | = | 58
Fc1ccc(F)c(-c2ccnc3[nH]c(C(F)(F)F)nc23)c1 | L6 | EC50 | µM | = | 15
FC(F)(F)Oc1cccc(-c2ccnc3[nH]c(C(F)(F)F)nc23)c1 | L6 | EC50 | µM | = | 0.83
FC(F)(F)c1ccc(-c2ncnc3[nH]c(C(F)(F)F)nc23)cc1 | L6 | EC50 | µM | = | 1.2
Fc1cc(F)cc(-c2ccc3nc(C(F)(F)F)[nH]c3n2)c1 | L6 | EC50 | µM | = | 3.8
FC(F)(F)c1nc2c(-c3cccc(Cl)c3)ccnc2[nH]1 | L6 | EC50 | µM | = | 2
FC(F)(F)c1ccc(-c2ccnc3[nH]c(C(F)(F)C(F)(F)F)nc23)cc1 | L6 | EC50 | µM | = | 4.69
Fc1ccccc1-c1ccc2nc(C(F)(F)F)[nH]c2n1 | L6 | EC50 | µM | = | 16
Fc1cccc(Oc2ccc3nc(C(F)(F)F)[nH]c3n2)c1 | L6 | EC50 | µM | = | 10.3
Fc1ccc(-c2ccnc3[nH]c(C(F)(F)F)nc23)c(F)c1 | L6 | EC50 | µM | = | 11
FC(F)(F)Oc1cccc(-c2ccc3nc(C(F)(F)F)[nH]c3n2)c1 | L6 | EC50 | µM | = | 1.4
Fc1cccc(Oc2ccc3nc(C(F)(F)F)[nH]c3n2)c1F | L6 | EC50 | µM | = | 7.1
FC(F)(F)c1cccc(Oc2ccc3nc(C(F)(F)F)[nH]c3n2)c1 | L6 | EC50 | µM | = | 1.8
Fc1cc(F)cc(Oc2ccnc3[nH]c(C(F)(F)F)nc23)c1 | L6 | EC50 | µM | = | 11.9
FC(F)(F)c1ccc(-c2ccnc3[nH]c(C(F)(F)F)nc23)cn1 | L6 | EC50 | µM | = | 2.6
FC(F)(F)c1cccc(-c2ncnc3[nH]c(C(F)(F)F)nc23)c1 | L6 | EC50 | µM | = | 1.2
FC(F)(F)c1ccc(-c2ccc3nc(C(F)(F)F)[nH]c3n2)cc1 | L6 | EC50 | µM | = | 1
Fc1ccc(-c2ccnc3[nH]c(C(F)(F)F)nc23)cc1F | L6 | EC50 | µM | = | 4.4
CC(=O)c1ccc(-c2ccnc3[nH]c(C(F)(F)F)nc23)cc1 | L6 | EC50 | µM | > | 100
